meta.source: patent US9156811B2

system: H460; assay: In-vitro antiproliferative assay, H460; details: Homo sapiens, NCI-H460, 72 h, read-out: IC50 H460
pIC50: −log10 of the molar value.
parameter measured: pIC50

>  <smiles text>
Cc1nn(C)c(C)c1N[S+](=O)([O-])c1c(Cl)cc(-c2ccnc(N3CCNCC3)c2)cc1Cl

>  <experimental target>
H460

>  <parameter measured>
pIC50

>  <test result>
5.88

$$$$

====

test: CNS penetration: drug concentration in blood and brain after i.v. dosing; assay type: in vivo; settings: brain / whole blood, iv; female NMRI mouse, single i.v. dose 3.0 mg/kg, t = 5 min

>  <smiles text>
Cc1c(NS(=O)(=O)c2ccc(CCCC3CCN(C)CC3)cc2)c(CC(C)C)nn1C

>  <Kp at 5 min>
0.26

$$$$
